# target-or-test-system: Msn1 (UniProt P22148)
# Sequence: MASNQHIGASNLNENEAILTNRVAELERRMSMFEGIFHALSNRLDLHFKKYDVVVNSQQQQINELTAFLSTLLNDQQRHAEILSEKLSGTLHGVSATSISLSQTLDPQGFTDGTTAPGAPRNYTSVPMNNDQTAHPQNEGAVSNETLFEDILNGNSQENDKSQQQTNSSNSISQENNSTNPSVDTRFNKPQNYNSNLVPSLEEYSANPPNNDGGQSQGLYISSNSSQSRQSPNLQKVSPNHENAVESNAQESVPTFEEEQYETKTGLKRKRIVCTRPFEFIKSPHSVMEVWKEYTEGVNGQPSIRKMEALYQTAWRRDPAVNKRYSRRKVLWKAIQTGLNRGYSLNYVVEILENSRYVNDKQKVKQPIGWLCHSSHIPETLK
# method-description: PBM E-score (8-mer binding enrichment) (E-score (-0.5 to 0.5)); higher = stronger / more preferred TF binding
# protocol-conditions: protein concentration: 200 nM; construct: GST-full length
Over roughly 33,000 sequences, “E-score (-0.5 to 0.5)” has its median near -0.013; the highest 2% begin near 0.3. The entries come from a sample that favours the highest values as a whole.
Below is a list of entries, each paired with its recorded PBM E-score value.
experimental-endpoint: PBM E-score

[[record]]
biopolymer_sequence = "TAAAGATA"
assay_result = 0.0041

[[record]]
biopolymer_sequence = "ATAAGACA"
assay_result = 0.264

[[record]]
biopolymer_sequence = "ACAAGACA"
assay_result = 0.34

[[record]]
biopolymer_sequence = "AGAACAAA"
assay_result = 0.303

[[record]]
biopolymer_sequence = "ACAAGACG"
assay_result = 0.0049

[[record]]
biopolymer_sequence = "AAAAGACG"
assay_result = 0.135

[[record]]
biopolymer_sequence = "AAAAGACC"
assay_result = 0.00338

[[record]]
biopolymer_sequence = "GGTACAAA"
assay_result = 0.456

[[record]]
biopolymer_sequence = "TGTACAAA"
assay_result = 0.392

[[record]]
biopolymer_sequence = "TGTACACA"
assay_result = 0.279

[[record]]
biopolymer_sequence = "GGTACAAC"
assay_result = 0.188


* * *

Listing of recorded PBM E-score by entry.
# target-or-test-system: Msn1 (UniProt P22148)
# Sequence: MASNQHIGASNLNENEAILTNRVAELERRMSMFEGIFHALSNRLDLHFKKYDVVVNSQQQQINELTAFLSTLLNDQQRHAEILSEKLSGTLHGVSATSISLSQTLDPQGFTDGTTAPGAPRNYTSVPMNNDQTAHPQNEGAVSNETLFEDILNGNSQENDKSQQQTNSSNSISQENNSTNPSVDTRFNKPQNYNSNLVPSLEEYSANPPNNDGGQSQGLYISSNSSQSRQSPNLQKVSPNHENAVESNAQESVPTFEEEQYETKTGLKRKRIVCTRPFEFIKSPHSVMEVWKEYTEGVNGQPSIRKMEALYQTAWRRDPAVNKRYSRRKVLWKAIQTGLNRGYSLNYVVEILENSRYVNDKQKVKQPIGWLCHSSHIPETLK
# method-description: PBM E-score (8-mer binding enrichment) (E-score (-0.5 to 0.5)); higher = stronger / more preferred TF binding
# protocol-conditions: protein concentration: 200 nM; construct: GST-full length
The full ranking holds about 33,000 sequences; the median of “E-score (-0.5 to 0.5)” is about -0.013, and the highest 2% start at about 0.3. The sample as a whole holds a higher share of the highest values than the screen did.
experimental-endpoint: PBM E-score

[[record]]
biopolymer_sequence = "CCACAATA"
assay_result = -0.105

[[record]]
biopolymer_sequence = "AGGACTAC"
assay_result = -0.122

[[record]]
biopolymer_sequence = "AGACAATA"
assay_result = 0.428

[[record]]
biopolymer_sequence = "AATGGCTA"
assay_result = -0.0496

[[record]]
biopolymer_sequence = "CAAATTTG"
assay_result = 0.32

[[record]]
biopolymer_sequence = "GGACTTCA"
assay_result = 0.0504

[[record]]
biopolymer_sequence = "TAGTTGCA"
assay_result = 0.0158

[[record]]
biopolymer_sequence = "GAACAATA"
assay_result = 0.144

[[record]]
biopolymer_sequence = "CGGACCAA"
assay_result = 0.256

[[record]]
biopolymer_sequence = "CGTGGCAC"
assay_result = 0.0166

[[record]]
biopolymer_sequence = "CGACAATC"
assay_result = 0.113

[[record]]
biopolymer_sequence = "CAAATGTA"
assay_result = 0.276

[[record]]
biopolymer_sequence = "ACACAATA"
assay_result = 0.15

[[record]]
biopolymer_sequence = "GAAATGTC"
assay_result = 0.487

[[record]]
biopolymer_sequence = "TACTCGAA"
assay_result = -0.00961

[[record]]
biopolymer_sequence = "CAAATGTC"
assay_result = 0.471

[[record]]
biopolymer_sequence = "CGACAAGC"
assay_result = -0.0394

[[record]]
biopolymer_sequence = "GATTCACC"
assay_result = -0.145

[[record]]
biopolymer_sequence = "AGCAGTTG"
assay_result = -0.0796

[[record]]
biopolymer_sequence = "CGACAATA"
assay_result = 0.334

[[record]]
biopolymer_sequence = "GCACAATA"
assay_result = -0.126

[[record]]
biopolymer_sequence = "AGGACGAT"
assay_result = -0.0393

